Where do these numbers come from? They come from PubChem BioAssay (NCI).

- Tested on: SK-MEL-28 melanoma
- TEST DESCRIPTION: NCI-60 one-dose screen, 48 h (100 = growth as untreated, 0 = no growth, -100 = all killed)
- MEASUREMENT SETUP: 10 µM unless noted
The panel holds about 83,000 compounds, 20% with a hit somewhere; the sample as a whole holds those more often.
growth less than 60% is class 1; growth greater than or equal to 60% is class 0.

> print(dat)
                                   compound    label
1  CCN(CC)CC[n+]1cc2cc(OC)c(OC)cc2c2ccc3cc4c(cc3c21)OCO4  class 1

query: Answer whether the compound `COc1ccc(C/C(=C(\C)c2ccc(OCCN3CCCC3)cc2)c2ccc(OCCN3CCCC3)cc2)cc1` has growth strictly less than 60%
result: class 1

query: Answer whether the compound `COc1ccc(/C=C2\Oc3cc(OCCCN4CCCCC4)ccc3C2=O)cc1OC` has growth strictly less than 60%
result: class 0

query: Answer whether the compound `COc1cc(CC(=O)c2ccc(O)c(OC)c2)ccc1O` has growth strictly less than 60%
result: class 0

query: Answer whether the compound `CCOC(=O)Nc1ccc(-c2ccc3c(c2)NC(=O)/C3=C\c2ccc[nH]2)cc1` has growth strictly less than 60%
result: class 0

query: Answer whether the compound COc1ccc(C(=O)C2C(C#N)C(C#N)C3C=Cc4ccccc4N32)cc1 (stereo unspecified) has growth strictly less than 60%
result: class 1
